System: T-47D breast
Experiment: NCI tumour cell line growth inhibition, 48 h
REPORTED_METRIC: TGI (µM)

COc1ccc(C(SCCO)(c2ccc(OC)cc2)c2ccc(OC)cc2)cc1 :: 33.7
Cc1cc(C(=O)CC(Cl)=C(Cl)Cl)c(Cl)cc1Cl :: 44.2
CCCCNP1(NCCCC)=NP(NCCCC)(NCCCC)=NP(NCCCC)(NCCCC)=NP(NCCCC)(NCCCC)=N1 :: 3.07
O=c1oc2ccc(I)cc2c(=O)n1-c1ccc(I)cc1F :: 3.49
COc1ccccc1-c1ccc2c(N)c(C(=O)c3ccc4c(c3)OCO4)sc2n1 :: 14.4
COC1/C=C/OC2(C)Oc3c(C)c(O)c4c(O)c(c(/C=N/N(c5ccccc5)c5ccccc5)c(O)c4c3C2=O)NC(=O)C(C)=C/C=C/C(C)C(O)C(C)C(O)C(C)C(OC(C)=O)C1C (centres undefined) :: 7.87
Cc1cc2oc(=O)cc(OC/C=C3/CCC(=O)O3)c2cc1C :: 7.5
CC(C)C1CCC(=O)CC1CCCCC1CC(=O)CC1O[Si](C)(C)C(C)(C)C (centres undefined) :: 46.9
CC(=O)c1ccc(Nc2nc3ccccc3c3occc23)cc1 :: 29.9
COc1cc2c(cc1OC)-c1cc3cc(OC)c(OC)cc3c(C)[n+]1CC2 (tested in a mixture with another compound) :: 25.2
[O-][N+]1=C(c2ccccc2)/C(=C2/C(c3ccccc3)=[N+]([O-])c3ccccc32)Cc2ccccc21 :: 45.8
CCCCCCCCCCCCSC1=CC(=O)C=CC1=O :: 3.58
COc1ccc(C(=O)/C=C/c2c(C(F)(F)F)nc3ccccn23)cc1OC :: 6.21
O=C(/C=C/c1ccc(O)c(O)c1)c1ccc(O)cc1O :: 20
COc1ccc2nc3c([N+](=O)[O-])ccc4c3c(c2c1)N=CN4CCN(C)C :: 22.4
CC(c1ccccc1)n1c2ccccc2c2c(N)ncnc21 (centres undefined) :: 59.6
N#Cc1ccc(O)c(C2=NCC(c3ccc(-c4ccccc4)cc3)O2)c1 (centres undefined) :: 24.1
Cc1cnc(-c2ccc(-c3ccc(NC(=O)Nc4cccc(C(F)(F)F)c4)cc3F)c3c2C(=O)NC3)[nH]1 :: 33.5

###

System: HT29 colon
Test: NCI tumour cell line growth inhibition, 48 h
REPORTED_METRIC: TGI

Cc1c(C(=O)/C=C/c2ccc(Cl)cc2)nnn1-c1ccnc2c(C(F)(F)F)cccc12 :: > 100 µM
CCOC(=O)NC(C(F)(F)F)(C(F)(F)F)P(=O)(OCC)OCC :: > 100 µM
COc1ccccc1/C=C1\CCC(CN2CCOCC2)C1=O (stereo not given) :: 56.6 µM
O=C(NCCCN1CCN(CCCNC(=O)c2cc(-c3ccccc3)nc3ccccc23)CC1)c1cc(-c2ccccc2)nc2ccccc12 :: > 39.7 µM
S=C1C(CCCOCc2ccccc2)C2CCCC23CC2(CCN13)OCCS2 (stereo not given) :: > 10 µM
CC(C)NC(=O)OCc1c(COC(=O)NC(C)C)c(-c2cc[n+](COC(=O)Cc3ccccc3)cc2)n2c1CCC2 :: > 100 µM
CCC/C=C/C=C\C(=O)O[C@@H]1[C@@H](C)[C@]2(O)[C@@H]3C=C(C)C(=O)[C@H]3CC(COC(C)=O)=C[C@H]2[C@@H]2C(C)(C)[C@]12OC(C)=O :: 84.6 µM
C=C1CCCC2OC(OC)CCC12 (stereo not given) :: > 100 µM
CCc1nc(N)nc(N)c1-c1ccc(N(C)Cc2ccccc2)c([N+](=O)[O-])c1 :: 14.6 µM
Cc1cnc2c(c1)C(=O)N(c1ccc(Br)cc1)S2(=O)=O :: > 100 µM
Cc1cc2oc(=O)cc(OC/C=C3/CCC(=O)O3)c2cc1C :: 12.7 µM
O=C(O)c1ccc(Nc2nc3ccc(C(F)(F)F)cc3nc2-c2ccccc2)cc1 :: > 10 µM
Cc1cc(S(=O)(=O)Nc2nnc3c(Cl)cc(C(F)(F)F)cn23)c(S)cc1Cl :: > 100 µM
CCN(CC)CCC(=O)Nc1ccc2sc3ccccc3c(=O)c2n1 :: > 100 µM
COc1ccc2nc3c([N+](=O)[O-])ccc4c3c(c2c1)N=CN4CCN(C)C :: 14.4 µM
CCn1c(=O)c2c3ccc(O)cc3[nH]c2c2ccc(O)cc21 :: > 100 µM
O=c1[nH][nH]c(=O)c2c(O)c(-c3ccccc3)ncc12 :: 674 µM
CCN(CC)CCOc1ccc(NC(=O)C(C(C)C)N2C(=O)/C(=C/c3ccc(Br)cc3)SC2=S)cc1 (stereo not given) :: 8.51 µM
O=c1oc2c(O)c(O)cc3c(=O)oc4c(O)c(O)cc1c4c23 :: > 100 µM
Cc1cc(C(=O)CC(Cl)=C(Cl)Cl)c(Cl)cc1Cl :: > 100 µM
